# system_under_test: mTOR (FRAP1) (Homo sapiens)
# run_description: SelectScreen Profiling, Z'-LYTE kinase assay, mTOR (FRAP1)
# Format: biochemical
# condition_details: 0.1 μM compound, ATP at Km, read-out: mTOR inh% @0.1 μM
endpoint: inhibition at 0.1 µM (%)
Return type: number; implicit unit %.

INSERT INTO measurements (structure_as_smiles, endpoint, value_unit, observed_value) VALUES
  ('CN(C)CCNC(=O)c1ccc(NC(=O)Nc2ccc(-c3nc(N4CCOCC4)c4cccn4n3)cc2)cc1', 'inhibition at 0.1 µM', '%', 98),
  ('CCNC(=O)Nc1ccc(-c2nc(N3CCOC[C@H]3C)c3cccn3n2)cc1', 'inhibition at 0.1 µM', '%', 72),
  ('O=C(Nc1ccc(C(=O)N2CCC(O)CC2)cc1)Nc1ccc(-c2nc(N3CCOCC3)c3cccn3n2)cc1', 'inhibition at 0.1 µM', '%', 90),
  ('O=C(Nc1ccc(C(=O)N2CC(O)C2)cc1)Nc1ccc(-c2nc(N3CCOCC3)c3cccn3n2)cc1', 'inhibition at 0.1 µM', '%', 95);

Exercise: # get_value(readout='inhibition at 0.1 µM', item= O=C(Nc1ccc(-c2nc(N3CCOCC3)c3cccn3n2)cc1)NC1CC1 )
Key: 69

Exercise: Please give the result for CN1CCCN(C(=O)c2ccc(NC(=O)Nc3ccc(-c4nc(N5CCOCC5)c5cccn5n4)cc3)cc2)CC1 too.
Key: 93

Exercise: Please give the result for CN1CCN(C(=O)c2ccc(NC(=O)Nc3ccc(-c4nc(N5CCOCC5)c5cccn5n4)cc3)cc2)CC1 too.
Key: 86

Exercise: Please give the result for O=C(Nc1ccc(C(=O)N2CCNCC2)cc1)Nc1ccc(-c2nc(N3CCOCC3)c3cccn3n2)cc1 too.
Key: 88

Exercise: Please give the result for O=C(Nc1ccc(C(=O)NCCN2CCOCC2)cc1)Nc1ccc(-c2nc(N3CCOCC3)c3cccn3n2)cc1 too.
Key: 69

Exercise: Please give the result for OCCNC(=S)Nc1ccc(-c2nc(N3C[C@H]4CC[C@@H](C3)O4)c3cccn3n2)cc1 too.
Key: 94

Exercise: Please give the result for CC(C)(O)c1ccc2c(N3CCOCC3)nc(-c3ccc(NC(=O)Nc4cccnc4)cc3)nn12 too.
Key: 71

Exercise: Please give the result for O=C(Nc1ccc(-c2nc(N3CCOCC3)c3cccn3n2)cc1)Nc1cccnc1 too.
Key: 87

Exercise: Please give the result for CN1CCN(CCNC(=O)c2ccc(NC(=O)Nc3ccc(-c4nc(N5CCOCC5)c5cccn5n4)cc3)cc2)CC1 too.
Key: 88

Exercise: Please give the result for CC(C)(C)C(=O)OCCNC(=O)Nc1ccc(-c2nc(N3C[C@H]4CC[C@@H](C3)O4)c3cccn3n2)cc1 too.
Key: 90

Exercise: Please give the result for O=C(Nc1ccc(C(=O)N2CC[C@@H](O)C2)cc1)Nc1ccc(-c2nc(N3CCOCC3)c3cccn3n2)cc1 too.
Key: 87

Exercise: Please give the result for O=C(Nc1ccc(-c2nc(N3CCOCC3)c3ccc(C(F)(F)F)n3n2)cc1)Nc1cccnc1 too.
Key: 53

====

# bioavailability annotations
# run_description: Rat pharmacokinetic study (IV and PO)
# Assay type: in vivo
# condition_details: blood, PO 10 mg/kg vs IV 5 mg/kg, read-out: Fpo (oral bioavailability)
Return type: number; implicit unit %.

INSERT INTO measurements (compound, observed_value) VALUES
  ('O=C(NCCO)Nc1ccc(-c2nc(N3CCOCC3)c3cccn3n2)cc1 [Example 29]', 5),
  ('CC(C)(C)C(=O)OCCNC(=O)Nc1ccc(-c2nc(N3CCOCC3)c3cccn3n2)cc1 [Example 128]', 22),
  ('O=C(NCCO)Nc1ccc(-c2nc(N3C[C@H]4CC[C@@H](C3)O4)c3cccn3n2)cc1 [Example 127]', 22),
  ('OCCNC(=S)Nc1ccc(-c2nc(N3C[C@H]4CC[C@@H](C3)O4)c3cccn3n2)cc1 [Example 122]', 48);

Exercise: # get_value(readout='bioavailability', item= O=C(Nc1ccc(-c2nc(N3CCOCC3)c3cccn3n2)cc1)Nc1cccnc1 [Example 14] )
Key: 22

Exercise: Please give the result for S=C(Nc1ccc(-c2nc(N3CCOCC3)c3cccn3n2)cc1)Nc1cccnc1 [Example 106] too.
Key: 89
